settings: 318.15 K; 101 kPa; Liquid; Concentric cylinders viscometry
Endpoint Label: viscosity (mPa·s)

1 = C1CCOC1 [tetrahydrofuran]
2 = CCOC(=O)C(C)O (racemic) [DL-ethyl lactate]
I'm curious, which of these has a smaller viscosity number: 1 or 2 ? Please reply using the label of the selected record.
1

P = CC(O)CO (stereo not given) [1,2-propanediol]
Q = COCCOCCOCCOCCOC [2,5,8,11,14-pentaoxapentadecane]
Exercise: compare P and Q ; which one has the greater viscosity? State your choice using its label.
P
(P: 15.73 mPa·s, Q: 2.185 mPa·s)

* * *

settings: 313.15 K; 101 kPa; Liquid; Vibrating tube method
Endpoint Label: mass density (kg/m3)

C1CCOC1 [tetrahydrofuran]: 865.82
CCOC(=O)C(C)O (racemic) [DL-ethyl lactate]: 1011.9
OCCCO: 1040.28
CC(O)CO (stereo not given): 1021.35
COCCOCCOCCOCCOC: 993.523

Values were extracted from the NIST ThermoML archive (doi:10.1016/j.fluid.2014.04.002).
